Property: fold change of Putrescine concentration; scope: individual molecules
System: Klebsiella aerogenes DSM 30053
Assay: fold change of Putrescine concentration vs plate DMSO controls (fold change (ratio)); higher = more amine produced, active = hit call of the paper (significant change in both replicates, either direction)
Conditions: 20 µM; incubation time: 27 h, anaerobic, 37 °C
Provide a numeric answer; units are not to be included.

[
  {
    "molecule": "C[C@]12CC[C@H](O)C[C@@H]1CC[C@@H]1[C@@H]2CC[C@]2(C)C(=O)CC[C@@H]12 [Epiandrosterone]",
    "test target": "Klebsiella aerogenes DSM 30053",
    "fold change of Putrescine concentration": 1.02
  },
  {
    "molecule": "CO/C=C(/C(=O)OC)c1ccccc1COc1cccc(C(F)(F)F)n1",
    "test target": "Klebsiella aerogenes DSM 30053",
    "fold change of Putrescine concentration": 1
  }
]

Request: Give the measured fold change of Putrescine concentration of "C=CCC1(CC(C)C)C(=O)NC(=O)NC1=O" .
Response: 1.01

Request: Would you kindly repeat that for "COP(=S)(OC)SCN1C(=O)c2ccccc2C1=O" ?
Response: 1.01

Request: Would you kindly repeat that for "N#C/N=C1\SCCN1Cc1ccc(Cl)nc1" ?
Response: 0.994

Request: Would you kindly repeat that for "Fc1ccc(C(OCCN2CCN(CCCc3ccccc3)CC2)c2ccc(F)cc2)cc1" ?
Response: 0.993

---

Tested on: Clostridium sporogenes DSM 1664
Test: growth (OD595) fold change vs plate DMSO controls (fold change (ratio)); higher = more growth
Conditions: 20 µM; incubation time: 27 h, anaerobic, 37 °C
assay metric: growth

Check out these entries, answers already filled in.
[
  {
    "molecule": "CCc1cccc(C)c1N(C(=O)CCl)[C@@H](C)COC",
    "growth": 1.01
  },
  {
    "molecule": "CC(=O)O[C@H]1C[C@H](O[C@H]2[C@@H](O)C[C@H](O[C@H]3[C@@H](O)C[C@H](O[C@H]4CC[C@@]5(C)[C@H](CC[C@@H]6[C@@H]5C[C@@H](O)[C@]5(C)[C@@H](C7=CC(=O)OC7)CC[C@]65O)C4)O[C@@H]3C)O[C@@H]2C)O[C@H](C)[C@H]1O[C@@H]1O[C@H](CO)[C@@H](O)[C@H](O)[C@H]1O [Lanatoside C]",
    "growth": 1.01
  },
  {
    "molecule": "CCNc1nc(Cl)nc(NC(C)C)n1",
    "growth": 1.02
  }
]

The record that follows has no growth shown yet.
Request: Give the measured growth of "N#C/N=C1\SCCN1Cc1ccc(Cl)nc1" .
Response: 1.01

---

Property: fold change of Cadaverine concentration; scope: individual compounds
Test system: Klebsiella aerogenes DSM 30053
Experiment: fold change of Cadaverine concentration vs plate DMSO controls (fold change (ratio)); higher = more amine produced, active = hit call of the paper (significant change in both replicates, either direction)
Settings: 20 µM; incubation time: 27 h, anaerobic, 37 °C

Check out these entries, answers already filled in.
[
  {
    "compound": "C=CC(N)=O [Acrylamide]",
    "observed": "0.972 (inactive)"
  },
  {
    "compound": "Oc1ccccc1-c1ccccc1",
    "observed": "0.998 (inactive)"
  }
]

Request: Give the measured fold change of Cadaverine concentration of CCCCCC[C@H]1C(=O)O[C@H](C)[C@H](NC(=O)c2cccc(NC=O)c2O)C(=O)O[C@@H](C)[C@@H]1OC(=O)CC(C)C [Antimycin A] .
Response: 1.01 (inactive)

Request: Would you kindly repeat that for COc1ccccc1N [o-Anisidine] ?
Response: 0.997 (inactive)

Request: Would you kindly repeat that for C#CCOc1ccc(CCNC(=O)C(OCC#C)c2ccc(Cl)cc2)cc1OC (stereo not given) ?
Response: 1.01 (inactive)

Request: Would you kindly repeat that for "CCOP(=S)(OCC)Oc1nc(Cl)c(Cl)cc1Cl" ?
Response: 1.02 (inactive)

Request: Would you kindly repeat that for O=C1C=CC(=O)C=C1 [1,4-Benzoquinone] ?
Response: 1.11 (inactive)

---

Tested on: Klebsiella aerogenes DSM 30053
Assay: fold change of Cadaverine concentration vs plate DMSO controls (fold change (ratio)); higher = more amine produced, active = hit call of the paper (significant change in both replicates, either direction)
Conditions: 20 µM; incubation time: 27 h, anaerobic, 37 °C
Structures can show the parent of a compound that is named as a salt.
assay metric: fold change of Cadaverine concentration
Provide a numeric answer; units are not to be included.

Check out these entries, answers already filled in.
[
  {
    "compound": "CN1CCN(C(=O)OC2c3nccnc3C(=O)N2c2ccc(Cl)cn2)CC1 (stereo not given)",
    "fold change of Cadaverine concentration": 0.99
  },
  {
    "compound": "CC(C)(C)NCC(O)c1ccccc1Cl (stereo not given) [Tulobuterol Hydrochloride]",
    "fold change of Cadaverine concentration": 1.01
  },
  {
    "compound": "COCC(=O)N(c1c(C)cccc1C)C(C)C(=O)OC (stereo not given)",
    "fold change of Cadaverine concentration": 1.01
  }
]

Request: Give the measured fold change of Cadaverine concentration of "C[C@@H]1[C@@H](c2ccc(Cl)cc2)SC(=O)N1C(=O)NC1CCCCC1" .
Response: 1.02

Request: Would you kindly repeat that for "C#C[C@]1(O)C=C[C@H]2[C@@H]3CCC4=CC(=O)CC[C@@H]4[C@H]3CC[C@@]21CC" ?
Response: 0.988

---

Tested on: Klebsiella aerogenes DSM 30053
Assay: fold change of Cadaverine concentration vs plate DMSO controls (fold change (ratio)); higher = more amine produced, active = hit call of the paper (significant change in both replicates, either direction)
Conditions: 20 µM; incubation time: 27 h, anaerobic, 37 °C
Counter-ions that a name gives are not always drawn.
assay metric: fold change of Cadaverine concentration
Provide a numeric answer; units are not to be included.

Check out these entries, answers already filled in.
[
  {
    "compound": "Cc1cc(C(C#N)c2ccc(Cl)cc2)c(Cl)cc1NC(=O)c1cc(I)cc(I)c1O (stereo not drawn)",
    "observed": 1.01
  },
  {
    "compound": "CCc1cccc(C)c1N(C(=O)CCl)[C@@H](C)COC",
    "observed": 0.997
  },
  {
    "compound": "CCOCn1c(-c2ccc(Cl)cc2)c(C#N)c(Br)c1C(F)(F)F",
    "observed": 0.983
  },
  {
    "compound": "CCCN1C[C@H](CSC)C[C@@H]2c3cccc4[nH]cc(c34)C[C@H]21 [Pergolide mesylate]",
    "observed": 1.01
  }
]

Request: Give the measured fold change of Cadaverine concentration of "O=C(CCCN1CCC(n2c(=O)[nH]c3ccccc32)CC1)c1ccc(F)cc1" .
Response: 1.02

Request: Would you kindly repeat that for "CO/N=C(/C(=O)OC)c1ccccc1CO/N=C(\C)c1cccc(C(F)(F)F)c1" ?
Response: 1.02

Request: Would you kindly repeat that for "CNC(=O)Oc1cccc2ccccc12" ?
Response: 1.01

Request: Would you kindly repeat that for CC(C)[N+](C)(CCC(C(N)=O)(c1ccccc1)c1ccccc1)C(C)C [Isopropamide iodide] ?
Response: 0.997
